Hello, the source for this data is patent US11306084B2, in case you need it.

target of assay: Recombinant human integrin ανβ3 (Homo sapiens, UniProt P05106+P06756)
Sequence (P05106 27-718 limits assumed, one chain of several): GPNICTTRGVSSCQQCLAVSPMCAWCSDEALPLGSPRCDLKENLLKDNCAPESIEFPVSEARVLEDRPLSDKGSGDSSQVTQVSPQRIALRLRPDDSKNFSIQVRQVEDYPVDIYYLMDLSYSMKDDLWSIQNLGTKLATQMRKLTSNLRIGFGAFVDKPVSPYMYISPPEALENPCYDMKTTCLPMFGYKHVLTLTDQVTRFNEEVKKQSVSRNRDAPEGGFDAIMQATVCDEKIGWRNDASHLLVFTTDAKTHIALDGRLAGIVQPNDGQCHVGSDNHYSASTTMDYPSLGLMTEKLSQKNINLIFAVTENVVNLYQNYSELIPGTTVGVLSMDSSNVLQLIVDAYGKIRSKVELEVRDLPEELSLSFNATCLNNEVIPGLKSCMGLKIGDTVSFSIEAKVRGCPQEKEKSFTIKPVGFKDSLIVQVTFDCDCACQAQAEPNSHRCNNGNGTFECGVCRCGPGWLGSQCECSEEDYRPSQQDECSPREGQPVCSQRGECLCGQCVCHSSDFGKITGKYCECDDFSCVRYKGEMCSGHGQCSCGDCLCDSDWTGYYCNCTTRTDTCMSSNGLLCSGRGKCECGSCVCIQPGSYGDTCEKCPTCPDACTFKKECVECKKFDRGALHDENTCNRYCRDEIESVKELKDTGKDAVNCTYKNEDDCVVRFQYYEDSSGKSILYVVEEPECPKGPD
run description: Solid Phase Receptor Assay (SPRA) for ανβ3 function
conditions used: plate-bound human vitronectin; read-out: αvβ3 SPRA IC50
Procedure: C. Solid Phase Receptor Assay (SPRA) for ανβ3 Function Wells were washed 3 times with 150 μL TBS+ and then 150 μL of blocking buffer (TBS+ with 1% bovine serum albumin, Sigma A7906) was added. The plate was incubated for 1 hr at 37° C. and then washed 3× with TBS+ buffer. […] 25 μL of 1.0 M phosphoric acid was added as a stop solution and the plates were read at 450 nm using a Spectramax plate reader.
Counter-ions that a name gives are not always drawn.
Recorded pIC50 values for a group of compounds are listed next.
Recall that pIC50 is obtained by taking minus log10 of the concentration measured in molar.

• COc1ccc([C@H](CC(=O)O)Cc2cc(OCCc3ccc4c(n3)NCCC4)n(C)n2)cc1F = 8.59
• COc1cc(C(C)(C)C)ccc1C(CC(=O)O)Cc1cc(OCCc2ccc3c(n2)NCCC3)n(C)n1 (centres unmarked) = 8.34
• Cn1nc(CC(CC(=O)O)c2ccc(F)c(C#N)c2)cc1OCCc1ccc2c(n1)NCCC2 (centres unmarked) = 8.15

Cn1nc(CC(CC(=O)O)c2cc(Cl)cc(C3(C(F)F)CC3)c2)cc1OCCc1ccc2c(n1)NCCC2 (centres unmarked) yielded pIC50 of 8.48

Cn1nc(CC(CC(=O)O)c2cc(C(C)(C)C)ccc2O)cc1OCCc1ccc2c(n1)NCCC2 (centres unmarked) [Example 42, Sodium Salt] yielded pIC50 of 7.74

COc1ccc(C(=O)O)cc1C(CC(=O)O)Cc1cc(OCCc2ccc3c(n2)NCCC3)n(C)n1 (centres unmarked) [Example 48, Trifluoroacetate] yielded pIC50 of 8.30

Cn1nc(CC(CC(=O)O)c2cccc(Br)c2)cc1OCCc1ccc2c(n1)NCCC2 (centres unmarked) yielded pIC50 of 8.30

Cn1nc(CC(CC(=O)O)c2cc(C#N)cc(C3(C(F)F)CC3)c2)cc1OCCc1ccc2c(n1)NCCC2 (centres unmarked) yielded pIC50 of 8.44

====

target of assay: Recombinant human integrin ανβ1 (Homo sapiens, UniProt P05556+P06756)
Sequence (P06756 31-992 limits assumed): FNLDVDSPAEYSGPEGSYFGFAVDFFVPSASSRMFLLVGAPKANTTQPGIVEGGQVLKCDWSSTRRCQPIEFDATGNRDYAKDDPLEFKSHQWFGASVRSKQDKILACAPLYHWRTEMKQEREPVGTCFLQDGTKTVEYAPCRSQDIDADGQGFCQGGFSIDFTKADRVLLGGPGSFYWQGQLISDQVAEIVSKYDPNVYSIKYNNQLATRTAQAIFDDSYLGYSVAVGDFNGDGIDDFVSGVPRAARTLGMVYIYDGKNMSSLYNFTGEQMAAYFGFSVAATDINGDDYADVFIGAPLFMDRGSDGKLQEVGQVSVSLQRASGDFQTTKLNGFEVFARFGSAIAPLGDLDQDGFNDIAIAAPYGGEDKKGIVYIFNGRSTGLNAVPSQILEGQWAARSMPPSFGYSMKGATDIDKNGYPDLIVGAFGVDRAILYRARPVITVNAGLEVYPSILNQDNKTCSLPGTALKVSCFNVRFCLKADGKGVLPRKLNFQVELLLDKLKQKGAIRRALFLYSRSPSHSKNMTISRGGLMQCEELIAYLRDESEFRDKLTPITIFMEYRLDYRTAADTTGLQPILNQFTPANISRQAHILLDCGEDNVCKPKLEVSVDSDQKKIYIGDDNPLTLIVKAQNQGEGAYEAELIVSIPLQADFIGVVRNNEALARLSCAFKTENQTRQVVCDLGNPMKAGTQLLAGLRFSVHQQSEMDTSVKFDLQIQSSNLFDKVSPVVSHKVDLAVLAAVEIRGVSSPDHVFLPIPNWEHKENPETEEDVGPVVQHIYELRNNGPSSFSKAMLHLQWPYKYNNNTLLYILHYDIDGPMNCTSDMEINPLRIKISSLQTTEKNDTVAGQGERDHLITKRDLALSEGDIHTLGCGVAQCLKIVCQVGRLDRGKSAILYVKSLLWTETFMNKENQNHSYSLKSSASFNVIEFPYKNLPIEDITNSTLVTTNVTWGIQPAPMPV
Sequence (P05556 21-728 limits assumed): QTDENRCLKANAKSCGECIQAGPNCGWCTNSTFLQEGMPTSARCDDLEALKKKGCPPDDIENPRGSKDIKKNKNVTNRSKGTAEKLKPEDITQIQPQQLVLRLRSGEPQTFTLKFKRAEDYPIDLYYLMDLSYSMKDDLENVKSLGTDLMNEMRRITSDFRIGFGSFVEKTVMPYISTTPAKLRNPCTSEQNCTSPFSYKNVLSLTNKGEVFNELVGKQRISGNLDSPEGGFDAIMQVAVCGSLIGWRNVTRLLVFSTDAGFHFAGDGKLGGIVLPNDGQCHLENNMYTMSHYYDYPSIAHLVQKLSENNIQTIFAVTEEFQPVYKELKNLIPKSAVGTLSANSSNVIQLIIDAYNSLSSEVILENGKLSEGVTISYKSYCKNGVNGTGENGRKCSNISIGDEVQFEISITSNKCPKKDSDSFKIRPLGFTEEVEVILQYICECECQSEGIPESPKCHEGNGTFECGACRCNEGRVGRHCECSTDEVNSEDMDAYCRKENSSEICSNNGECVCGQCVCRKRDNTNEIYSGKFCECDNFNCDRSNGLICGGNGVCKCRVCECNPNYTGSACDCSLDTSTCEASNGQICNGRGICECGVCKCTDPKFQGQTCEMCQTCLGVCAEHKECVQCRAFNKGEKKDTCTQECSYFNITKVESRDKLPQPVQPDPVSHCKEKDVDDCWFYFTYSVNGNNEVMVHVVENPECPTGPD
run description: Solid Phase Receptor Assay (SPRA) for ανβ1 function
conditions used: plate-bound human fibronectin; read-out: αvβ1 SPRA IC50
Recorded IC50 values for a group of compounds are listed next.
Form entry: value (nM) — number only.

Please review the entries below; each comes with its answer.
* Cn1nc(CC(CC(=O)O)c2ccc(C#N)c(F)c2)cc1OCCc1ccc2c(n1)NCCC2 (stereo not shown) | 12
* Cn1nc(CC(CC(=O)O)c2cc(Cl)cc(C3(C(F)F)CC3)c2)cc1OCCc1ccc2c(n1)NCCC2 (stereo not shown) | 2.2
* Cn1nc(CC(CC(=O)O)c2cc(OC(F)(F)F)cc(C(C)(C)C)c2)cc1OCCc1ccc2c(n1)NCCC2 (stereo not shown) | 6.5
* Cn1nc(CC(CC(=O)O)c2ccc3c(c2)OCCO3)cc1OCCc1ccc2c(n1)NCCC2 (stereo not shown) | 6
* Cn1nc(CC(CC(=O)O)c2cc(F)cc(C3(C(F)F)CC3)c2)cc1OCCc1ccc2c(n1)NCCC2 (stereo not shown) | 3.7

Cn1nc(CC(CC(=O)O)c2cc(Br)cc(C(F)(F)F)c2)cc1OCCc1ccc2c(n1)NCCC2 (stereo not shown) yielded IC50 of 17

Cn1nc(CC(CC(=O)O)c2cc(C(F)(F)F)cc(C(C)(C)C(F)(F)F)c2)cc1OCCc1ccc2c(n1)NCCC2 (stereo not shown) yielded IC50 of 3.1
